Test system: SK-OV-3
protocol-notes: Cytotoxicity against human SK-OV3 cells
Format: functional
Known GI50 of a selection of compounds
Only the number, expressed in nM, is required.

Some solved cases for reference:
C/C=C1\NC(=O)[C@H](Cc2ccccc2)NC(=O)[C@@H](C(C)C)NC(=O)[C@@H]([C@H](C)CC)NC(=O)[C@H](NC(=O)[C@H](NC(=O)[C@H](CCCN)NC(=O)[C@H]2CCCN2C(=O)[C@H](NC(=O)[C@@H](NC(=O)[C@@H](NC(=O)[C@H](NC(=O)CCCC(C)C)C(C)C)[C@@H](C)O)C(C)C)C(C)C)[C@H](C)CC)[C@H](C)OC(=O)[C@H](C(C)C)NC1=O [KAHALALIDE F]
191
C/C=C1\NC(=O)[C@H](Cc2ccccc2)NC(=O)[C@@H](C(C)C)NC(=O)[C@@H]([C@@H](C)CC)NC(=O)[C@H](NC(=O)[C@H](NC(=O)[C@H](CCCNC(=O)c2cc3ccc(N(CC)CC)cc3oc2=O)NC(=O)[C@H]2CCCN2C(=O)[C@H](NC(=O)[C@@H](NC(=O)[C@@H](NC(=O)[C@H](NC(=O)CCCC(C)C)C(C)C)[C@@H](C)O)C(C)C)C(C)C)[C@@H](C)CC)[C@@H](C)OC(=O)[C@H](C(C)C)NC1=O
2550

Need GI50 of C/C=C1\NC(=O)[C@H](Cc2ccccc2)NC(=O)[C@@H](C(C)C)NC(=O)[C@@H]([C@@H](C)CC)NC(=O)[C@H](NC(=O)[C@H](NC(=O)[C@H](CCCNCc2ccc(F)cc2)NC(=O)[C@H]2CCCN2C(=O)[C@H](NC(=O)[C@@H](NC(=O)[C@@H](NC(=O)[C@H](NC(=O)CCCC(C)C)C(C)C)[C@@H](C)O)C(C)C)C(C)C)[C@@H](C)CC)[C@@H](C)OC(=O)[C@H](C(C)C)NC1=O , thanks. 183

* * *

System: RPMI-8226
protocol-notes: Cytotoxicity against human RPMI8226 cells
Type: functional
reported-endpoint: GI50 (nM)
API: value field is a number in nM; no unit string.

CC(=O)O[C@H]1C(=O)[C@@]2(C)[C@H]([C@H](OC(=O)c3ccccc3)[C@]3(O)C[C@H](OC(=O)[C@H](O)[C@@H](NC(=O)c4ccccc4)c4ccccc4)C(C)=C1C3(C)C)[C@]1(OC(C)=O)CO[C@@H]1C[C@@H]2O [PACLITAXEL]
2

Consider the compound C/C=C1\NC(=O)[C@H](Cc2ccccc2)NC(=O)[C@@H](C(C)C)NC(=O)[C@@H]([C@@H](C)CC)NC(=O)[C@H](NC(=O)[C@H](NC(=O)[C@H](CCCNCc2ccc(F)cc2)NC(=O)[C@H]2CCCN2C(=O)[C@H](NC(=O)[C@@H](NC(=O)[C@@H](NC(=O)[C@H](NC(=O)CCCC(C)C)C(C)C)[C@@H](C)O)C(C)C)C(C)C)[C@@H](C)CC)[C@@H](C)OC(=O)[C@H](C(C)C)NC1=O and give its measured GI50. 475

* * *

System: KM12
protocol-notes: Cytotoxicity against human KM12 cells
Type: functional
reported-endpoint: TGI (nM)
Hi! Could you send only the number? It should be in nM, unit omitted.

Answered cases to consult:
C/C=C1\NC(=O)[C@H](Cc2ccccc2)NC(=O)[C@@H](C(C)C)NC(=O)[C@@H]([C@@H](C)CC)NC(=O)[C@H](NC(=O)[C@H](NC(=O)[C@H](CCCNCc2cccs2)NC(=O)[C@H]2CCCN2C(=O)[C@H](NC(=O)[C@@H](NC(=O)[C@@H](NC(=O)[C@H](NC(=O)CCCC(C)C)C(C)C)[C@@H](C)O)C(C)C)C(C)C)[C@@H](C)CC)[C@@H](C)OC(=O)[C@H](C(C)C)NC1=O
2190
C/C=C1\NC(=O)[C@H](Cc2ccccc2)NC(=O)[C@@H](C(C)C)NC(=O)[C@@H]([C@@H](C)CC)NC(=O)[C@H](NC(=O)[C@H](NC(=O)[C@H](CCCNC(=O)c2cc3ccc(N(CC)CC)cc3oc2=O)NC(=O)[C@H]2CCCN2C(=O)[C@H](NC(=O)[C@@H](NC(=O)[C@@H](NC(=O)[C@H](NC(=O)CCCC(C)C)C(C)C)[C@@H](C)O)C(C)C)C(C)C)[C@@H](C)CC)[C@@H](C)OC(=O)[C@H](C(C)C)NC1=O
3070
CC(=O)O[C@H]1C(=O)[C@@]2(C)[C@H]([C@H](OC(=O)c3ccccc3)[C@]3(O)C[C@H](OC(=O)[C@H](O)[C@@H](NC(=O)c4ccccc4)c4ccccc4)C(C)=C1C3(C)C)[C@]1(OC(C)=O)CO[C@@H]1C[C@@H]2O [PACLITAXEL]
15800

Query compound follows.
Given the compound C/C=C1\NC(=O)[C@H](Cc2ccccc2)NC(=O)[C@@H](C(C)C)NC(=O)[C@@H]([C@H](C)CC)NC(=O)[C@H](NC(=O)[C@H](NC(=O)[C@H](CCCN)NC(=O)[C@H]2CCCN2C(=O)[C@H](NC(=O)[C@@H](NC(=O)[C@@H](NC(=O)[C@H](NC(=O)CCCC(C)C)C(C)C)[C@@H](C)O)C(C)C)C(C)C)[C@H](C)CC)[C@H](C)OC(=O)[C@H](C(C)C)NC1=O [KAHALALIDE F] , what is its reported TGI? 363
